# Test system: NCI-H23 lung
# assay-method-text: NCI tumour cell line growth inhibition, 48 h
Form field: TGI (one value per entry).

// known answers, use as guide
O=C1CC2OCC=C3CN4CCC5(C(=O)O)C(N1)C2C3CC45 (centres undefined) | > 100 µM
COc1ccc(/C=C(/c2ccc(OC)cc2)c2c(Cl)cc(Cl)c(/C(=C\c3ccc(OC)cc3)c3ccc(OC)cc3)c2N=Nc2ccccc2)cc1 | > 100 µM
CC1=C(C(=O)NCc2ccccc2)C(c2ccco2)C(C(=O)NCc2ccccc2)=C(C)N1 | > 100 µM
O=c1[nH]c2ccc(C(F)(F)F)cc2nc1C(F)(F)F | 46.9 µM
COc1cc(-c2nc(SC)nc3c2CCc2ccccc2-3)cc(OC)c1OC | > 100 µM

Problem: Fill in reported TGI for this entry: `COC(=O)/C=C\C(C#N)(C#N)N=Cc1ccc(Br)cc1`
Result: 49.5 µM

Problem: Fill in reported TGI for this entry: `COc1ccc(/N=N/C(=NNC(=O)c2ccc(C)cc2)c2ccc(N(C)C)cc2)cc1`
Result: > 100 µM

Problem: Fill in reported TGI for this entry: CCCCCCCCCCCCCCCCCCNc1nc(=O)n(C2CC(OP(=O)(O)OCC3OC(n4cc(F)c(=O)[nH]c4=O)CC3O)C(CO)O2)cc1F (centres undefined)
Result: > 100 µM

Problem: Fill in reported TGI for this entry: `CSc1c(C)n([O-])c2cc(Cl)c(Cl)cc2[n+]1=O`
Result: 31.8 µM

###

# System: HOP-92 NSCLC
# assay-method-text: NCI tumour cell line growth inhibition, 48 h
Form field: TGI (one value per entry).

CCN1CCC(O)(/C=C/c2ccccc2)C(C(=O)/C=C/c2ccccc2)C1 (configuration not stated) | 8.76 µM

Problem: Fill in reported TGI for this entry: `Cc1ccc(C(=O)N/N=C(\N=Nc2ccccc2C(=O)O)c2ccc(N(C)C)cc2)cc1`
Result: > 100 µM

Problem: Fill in reported TGI for this entry: `Cc1ccc(C)c2c1n1c(=O)n(C)c(=O)n21`
Result: > 100 µM

Problem: Fill in reported TGI for this entry: CCOC(=O)CCC(NC(=O)c1ccc(Nc2nc3ccccc3nc2C(=O)OCC)s1)C(=O)OCC (configuration not stated)
Result: > 100 µM

Problem: Fill in reported TGI for this entry: `Cc1ccc(C)c(NC(=O)C(=O)Nn2c(=S)[nH]c3ccccc3c2=O)c1`
Result: > 100 µM

Problem: Fill in reported TGI for this entry: `COc1ccc(/C=C/C(=O)c2ccc(Nc3nc(Nc4ccc(F)cc4)nc(Nc4ccc(F)cc4)n3)cc2)cc1`
Result: 31.4 µM

Problem: Fill in reported TGI for this entry: `CSc1c(C)n([O-])c2cc(Cl)c(Cl)cc2[n+]1=O`
Result: 30.3 µM

Problem: Fill in reported TGI for this entry: CC1=C(SCCC(=O)OC(C[Se]C2=C(C)C(=O)c3ccccc3C2=O)C(=O)NC(C)(C)C)C(=O)c2ccccc2C1=O (configuration not stated)
Result: 2.13 µM

Problem: Fill in reported TGI for this entry: `CCCCCC/C(CC(=O)CCC(=O)NCCc1ccccc1)=N\Nc1ccc([N+](=O)[O-])cc1[N+](=O)[O-]`
Result: > 100 µM

Problem: Fill in reported TGI for this entry: `COc1ccc(/N=N/C(=NNC(=O)c2ccc(C)cc2)c2ccc(N(C)C)cc2)cc1`
Result: > 100 µM

Problem: Fill in reported TGI for this entry: `NC1=Nc2ccccc2Sc2ccccc21`
Result: > 100 µM

Problem: Fill in reported TGI for this entry: `CC(C)=C=CP(=O)(O)c1ccccc1`
Result: > 100 µM

Problem: Fill in reported TGI for this entry: `CCN(CC)C(=O)c1cc([N+](=O)[O-])c(=O)n2c1[nH]c1ccccc12`
Result: > 100 µM

Problem: Fill in reported TGI for this entry: CC1=C2C3OC(=O)C(C)C3C(O)C[C@@]2(C)C(=O)CC1 (some centres not stated)
Result: > 100 µM

Problem: Fill in reported TGI for this entry: `CCOC(=O)N(O)c1ccc(/C=C/c2ccccc2)cc1`
Result: 35.7 µM

###

Form field: TGI (one value per entry).
# System: M14 melanoma
# assay-method-text: NCI tumour cell line growth inhibition, 48 h
Entry rule: numbers only, all in µM.

// known answers, use as guide
CCN1CCC(O)(/C=C/c2ccccc2)C(C(=O)/C=C/c2ccccc2)C1 (stereo not given) | 4.13
CC(C)(C)CC(C)(C)NCC(O)COc1ccc(C(C)(C)c2ccc(OCC(O)CNC(C)(C)CC(C)(C)C)cc2)cc1 (stereo not given) | 1.49
O=C(/C=C/c1ccc(Cl)cc1Cl)c1ccc(Cl)cc1Cl | 46.3

Problem: Fill in reported TGI for this entry: CNC(=O)C1OC(n2cnc3c(NCc4cccc(I)c4)nc(Cl)nc32)C(O)C1O (stereo not given)
Result: 21.9

###

# System: KM12 colon
# assay-method-text: NCI tumour cell line growth inhibition, 48 h; in the data active means GI50 below about 0.43 µM; inactive means the rest
Result category, one only: active, inactive

Example entries and their recorded answers appear below.
c1ccc(-c2cc3n4c(-c5ccccc5)nn(-c5ccccc5)c4cnc-3n2)cc1 | inactive
CN(C)CCOc1ccc2c(c1)C(=O)/C(=C\c1ncc([N+](=O)[O-])n1C)C2 | inactive
CC(=O)/C(=C/N1CCN(C(=O)c2ccco2)C1=S)C(=O)c1ccccc1 | inactive
O=C(N/N=C/c1ccc(N(CCCl)CCCl)cc1)c1ccc(C(=O)N/N=C/c2ccc(N(CCCl)CCCl)cc2)cc1 | inactive
C=C(CN1CCN(c2ccc(F)c(Cl)c2)CC1)c1ccc(C(=O)Nc2ccccc2N)cc1 | inactive

Problem: In this assay, the call recorded for `Cn1cccc1-c1cc(-c2ccccc2)nc(N)c1C#N` was what?
Result: inactive

Problem: In this assay, the call recorded for `O=C(/C=C/c1ccc(Cl)cc1Cl)c1ccc(Cl)cc1Cl` was what?
Result: inactive

Problem: In this assay, the call recorded for `COC(=O)[C@@H](C)C[C@H](Cc1ccccc1)NC(=O)c1csc([C@@H](C[C@H](C(C)C)N(C)C(=O)[C@@H](NC(=O)[C@H]2CCCCN2C)C(C(F)(F)F)C(F)(F)F)OC(C)=O)n1` was what?
Result: active

Problem: In this assay, the call recorded for `N#Cc1cc2c(cc1Cl)SC(=Nc1ccccc1)N(S(=O)(=O)c1ccc(Br)s1)S2(=O)=O` was what?
Result: inactive

Problem: In this assay, the call recorded for `C[C@@H](C[C@H](CCO)c1ccccc1)c1ccc2ccccc2c1` was what?
Result: inactive

###

# System: HL-60(TB) leukemia
# assay-method-text: NCI tumour cell line growth inhibition, 48 h
value-kind: TGI (µM)
Entry rule: numbers only, all in µM.

C[C@@H](C[C@H](CCO)c1ccccc1)c1ccc2ccccc2c1 | 4

Let us move to another entry and its TGI.
Problem: Fill in reported TGI for this entry: `CCCCCC/C(CC(=O)CCC(=O)NCCc1ccccc1)=N\Nc1ccc([N+](=O)[O-])cc1[N+](=O)[O-]`
Result: 70.5

###

# System: 786-0 renal
# assay-method-text: NCI tumour cell line growth inhibition, 48 h
value-kind: TGI

CC(C)(C)CC(C)(C)NCC(O)COc1ccc(C(C)(C)c2ccc(OCC(O)CNC(C)(C)CC(C)(C)C)cc2)cc1 (configuration not stated) | 2.77 µM
COc1ccc(C2C3=C(COC3=O)N(CCO)c3cc4c(cc32)CCC4)cc1 (configuration not stated) | > 50 µM
Cc1c(C2CCSc3ccccc3N2)sc2ccccc12 (configuration not stated) | > 100 µM
O=C(O)C1CSC2(CCCN(Cc3ccccc3)C2)N1 (configuration not stated) | > 100 µM

Problem: Fill in: TGI on 786-0 renal, entry `NC(=S)NS(=O)(=O)c1ccc(Cl)cc1`
Result: > 100 µM

Problem: Fill in: TGI on 786-0 renal, entry Nc1ccn(CC(O)c2cc3ccccc3[nH]2)c(=O)n1 (configuration not stated)
Result: > 100 µM

Problem: Fill in: TGI on 786-0 renal, entry `O=C(CN1CCN(c2ccccn2)CC1)N1CCCn2c1nc1ccccc1c2=O`
Result: > 100 µM

Problem: Fill in: TGI on 786-0 renal, entry NC1=C(O)C(=O)C(c2c[nH]c3ccc(OCc4ccccc4)cc23)O1 (configuration not stated)
Result: > 100 µM

Problem: Fill in: TGI on 786-0 renal, entry `Cc1nccn1S(=O)(=O)c1ccc(Cl)cc1`
Result: > 100 µM

###

Form field: TGI (one value per entry).
# Tested on: M14 melanoma
# assay-method-text: NCI tumour cell line growth inhibition, 48 h
Entry rule: numbers only, all in µM.

// known answers, use as guide
C=C(Cl)CN1c2ccccc2C=Cc2ccccc21 | 57.8
Cc1ccc(S(=O)(=O)N/N=C\c2c3ccccc3[n+](C)c3ccccc23)cc1 | 97.9
C=CCO[C@H]1CC[C@@]2(C)C(CC[C@]3(C)C2CC=C2[C@@H]4[C@@H](C)C(C)CC[C@]4(C(=O)O)CCC23C)C1(C)C (stereo not given in full) | 34.6

Problem: Fill in reported TGI for this entry: `COc1ccc(S(=O)(=O)Nc2cc(Sc3cccc4cccnc34)c(O)c3ccccc23)cc1`
Result: 12.1

Problem: Fill in reported TGI for this entry: `CN(C)CCOc1ccc2c(c1)C(=O)/C(=C\c1ncc([N+](=O)[O-])n1C)C2`
Result: 1.83

Problem: Fill in reported TGI for this entry: OCC(S)CS.[Bi] (stereo not given)
Result: 29.5

Problem: Fill in reported TGI for this entry: `CN1CCN(c2nc3cc(F)ccc3n3cccc23)CC1`
Result: 34.5

Problem: Fill in reported TGI for this entry: `CCCC(=O)OC(OC(=O)CCC)c1ccc([N+](=O)[O-])o1`
Result: 47.8

Problem: Fill in reported TGI for this entry: `C=C(CN1CCN(c2ccc(F)c(Cl)c2)CC1)c1ccc(C(=O)Nc2ccccc2N)cc1`
Result: 11.6
